These entries and their values trace back to patent US4252984A.

Target: β1 -adrenergic receptors (Rattus norvegicus)
Construct: from tissue; host or cells: isolated rat auricles (atria)
Assay: Studies on isolated organs: antagonism of isoprenaline-induced tachycardia and increase in contractile force in isolated rat auricles (pA2)
Parameters: species or system rats
Conditions: isoprenaline contractile force, metoprolol = 1.0
Binary classification by Effect on inotropism, ratio of activity to that of metoprolol, with 0.2 as an inclusive lower bound for rule met; all other cases are rule not met.

Reference set, count: 4
Compound	Assigned Class
CC(C)NCC(O)COc1ccc(CCOCC2CCCC2)cc1 (stereo not drawn)	rule not met
CC(C)NCC(O)COc1ccc(OCCOCC2CCCC2)cc1 (stereo not drawn)	rule met
CC(C)NCC(O)COc1ccc(OCCSCC2CC2)cc1 (stereo not drawn)	rule met
CC(C)NCC(O)COc1ccc(OCCS(=O)(=O)CC2CC2)cc1 (stereo not drawn)	rule not met

Ask | Textbook exercise: given the entry CC(C)(C)NCC(O)COc1ccc(OCC2CC2)cc1 (stereo not drawn) , state whether its Effect on inotropism, ratio of activity to that of metoprolol is greater than or equal to 0.2.
Reply | rule met

Ask | # bool: Effect on inotropism, ratio of activity to that of metoprolol of CC(C)NCC(O)COc1ccc(OCCOCC2CC2)cc1 (stereo not drawn) >= 0.2
Reply | rule met

Ask | Quick check, Effect on inotropism, ratio of activity to that of metoprolol >= 0.2? CC(C)NCC(O)COc1ccc(CCCOCC2CCC2)cc1 (stereo not drawn)
Reply | rule not met

Ask | Threshold query (Effect on inotropism, ratio of activity to that of metoprolol >= 0.2) on CC(CCc1ccccc1)NCC(O)COc1ccc(CCOCC2CCC2)cc1 (stereo not drawn)
Reply | rule not met

====

Target: β1 -adrenergic receptors (Rattus norvegicus, UniProt P18090)
Construct: from tissue; host or cells: isolated rat auricles (atria)
Sequence (P18090 whole entry): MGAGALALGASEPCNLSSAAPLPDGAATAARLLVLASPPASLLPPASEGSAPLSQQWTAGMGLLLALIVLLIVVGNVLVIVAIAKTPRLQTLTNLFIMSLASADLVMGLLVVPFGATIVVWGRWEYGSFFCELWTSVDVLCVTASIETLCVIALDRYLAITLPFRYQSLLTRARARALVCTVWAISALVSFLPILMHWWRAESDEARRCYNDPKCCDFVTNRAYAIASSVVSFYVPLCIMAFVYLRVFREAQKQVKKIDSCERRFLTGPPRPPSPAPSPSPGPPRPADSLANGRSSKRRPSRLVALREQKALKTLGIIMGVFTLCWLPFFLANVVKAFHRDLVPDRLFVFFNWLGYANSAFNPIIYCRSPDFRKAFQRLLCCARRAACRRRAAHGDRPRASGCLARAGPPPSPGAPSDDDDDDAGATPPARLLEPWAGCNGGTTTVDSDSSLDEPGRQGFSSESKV
Assay: Studies on isolated organs: antagonism of isoprenaline-induced tachycardia and increase in contractile force in isolated rat auricles (pA2)
Design: species or system rats
Conditions: isoprenaline tachycardia, metoprolol = 1.0
Listing: Effect on chronotropism, ratio of activity to that of metoprolol of selected molecules
A bare number is all that is needed in reply.

These solved cases illustrate the format of a correct answer.
Molecule	Numeric Value
CC(C)NCC(O)COc1ccc(COCC2CCC2)cc1 (stereo not shown)	0.6
CC(CC#N)NCC(O)COc1ccc(CCOCC2CCC2)cc1 (stereo not shown)	0.07
CC(C)NCC(O)COc1ccc(OCCOCC2CC2)cc1 (stereo not shown)	2.8
COc1ccc(CCNCC(O)COc2ccc(CCOCC3CCC3)cc2)cc1OC (stereo not shown)	1.3
CC(C)(C)NCC(O)COc1ccc(OCCOCC2CC2)cc1 (stereo not shown)	1.4

Ask | So what's the measured Effect on chronotropism, ratio of activity to that of metoprolol for this one? CC(C)NCC(O)COc1ccc(CCOCC2CCCCC2)cc1 (stereo not shown)
Reply | 0.2

Ask | Given CC(C)NCC(O)COc1ccc(OCCS(=O)(=O)CC2CC2)cc1 (stereo not shown) , state its recorded Effect on chronotropism, ratio of activity to that of metoprolol.
Reply | 0.1
